# STUDY TARGET: human full-length Sirt1 (fl-Sirt1) (Homo sapiens, UniProt Q96EB6)
# Construct: human full-length Sirt1 (fl-Sirt1) in pET-15b; made in house; host or cells: E. coli CodonPlus(DE3)
# Sequence (Q96EB6 1-747): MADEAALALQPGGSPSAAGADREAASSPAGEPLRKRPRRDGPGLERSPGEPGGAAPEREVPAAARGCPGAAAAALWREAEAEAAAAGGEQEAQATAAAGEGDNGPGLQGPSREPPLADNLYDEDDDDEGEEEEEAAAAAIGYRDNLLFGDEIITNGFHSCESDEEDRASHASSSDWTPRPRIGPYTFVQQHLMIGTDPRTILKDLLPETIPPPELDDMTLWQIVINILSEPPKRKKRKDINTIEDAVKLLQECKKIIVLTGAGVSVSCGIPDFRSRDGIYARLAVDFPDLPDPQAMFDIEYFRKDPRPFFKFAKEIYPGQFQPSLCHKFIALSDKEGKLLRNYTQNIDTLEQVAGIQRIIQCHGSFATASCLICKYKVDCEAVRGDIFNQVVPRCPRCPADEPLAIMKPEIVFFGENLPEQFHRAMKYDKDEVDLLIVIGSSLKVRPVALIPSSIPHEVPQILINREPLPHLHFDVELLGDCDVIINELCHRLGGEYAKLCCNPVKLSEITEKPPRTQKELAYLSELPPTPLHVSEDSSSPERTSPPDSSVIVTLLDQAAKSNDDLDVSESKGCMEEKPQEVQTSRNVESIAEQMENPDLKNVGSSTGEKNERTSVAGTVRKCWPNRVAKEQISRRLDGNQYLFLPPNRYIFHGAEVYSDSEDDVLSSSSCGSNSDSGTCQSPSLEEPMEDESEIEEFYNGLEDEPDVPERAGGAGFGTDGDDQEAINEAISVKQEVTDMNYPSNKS
# ASSAY SUMMARY: FdL deacetylation assay, fl-Sirt1
# Format: biochemical
# CONDITIONS USED: FdL assay, 100 µM FdL-1, 500 µM NAD^+, pH 7.8, 37 °C; n = 2; read-out: IC50, fl-Sirt1, truncated Tat-Cys^− constructs
OBSERVED PROPERTY: IC50

Please report the recorded IC50 for residues 21–63 of Tat-Cys^−: construct also lacking the N-terminal region from aa 1–20 (ASNRAHAKKSAYHSQVAFITKGLGISYGRKKRRQRRRPSQGGQ) . ~30 µM

From: paper PMC10144703
